- Test system: UACC-62 melanoma
- run-description: NCI-60 one-dose screen, 48 h (100 = growth as untreated, 0 = no growth, -100 = all killed)
- measurement-conditions: 10 µM unless noted
This is part of a sample that, as a whole, favours compounds with a hit. Of some 83,000 tested, about 20% had one in any assay.
Label Criterion met when growth is at or above 70%; anything below gets Criterion not met.

Here's what some known entries look like.
# molecule, assigned-class
rows = [
    ("C=C1CCC2C3(C)COC(c4c(OC)cccc4OC)OC3CCC2(C)C1C/C=C1/C(=O)OCC1O (stereo not given)", "Criterion not met"),
    ("C=C[C@@H]1C[C@H](O)Cc2c(C)cc(C)cc2N1", "Criterion met"),
    ("O=C(Nc1cccc(-n2cc(-c3ccncc3)c(-c3ccc(Cl)c(O)c3)n2)c1)Nc1cc(C(F)(F)F)cc(C(F)(F)F)c1", "Criterion not met"),
    ("Cn1c(=O)c2[nH]c(C3CC=CCC3)nc2n(C)c1=O (stereo not given)", "Criterion met"),
    ("Oc1ccc(Cl)cc1-c1cc(-c2ccc(F)cc2)n[nH]1", "Criterion not met"),
]

Attention now shifts to the item below.
Say whether "Cc1c(C(N)=O)sc2c1c(=O)n(Cc1ccccc1)c1nnc(Nc3ccccc3)n21" shows growth of 70% or more. Criterion met

* * *

Please go through the items and note down their growth.
- System: MCF7 breast
- run-description: NCI-60 one-dose screen, 48 h (100 = growth as untreated, 0 = no growth, -100 = all killed)
- measurement-conditions: 10 µM unless noted
The panel holds about 83,000 compounds, 20% with a hit somewhere; the sample as a whole holds those more often.
Numbers only, in %.

Examples from the recorded data:
# compound, system, reading
rows = [
    ("Clc1cc2c(nn1)Nc1ccccc1S2", "MCF7 breast", 85.3),
    ("O=C(c1ccccc1)c1c(/C=C/c2ccccc2)c2ccccc2[nH]c1=O", "MCF7 breast", 97.3),
    ("O=[N+]([O-])c1ccc(OCCCOc2ccccc2)cc1", "MCF7 breast", 93),
    ("Nc1cccc(-c2nc3sccn3c2-c2ccnc(NCCCNS(=O)(=O)c3cccc4ccccc34)n2)c1", "MCF7 breast", 25.2),
    ("CCN1C(=O)N(CC)C2C1NN=c1s/c(=C\\c3cccnc3)c(=O)n12 (stereo unspecified)", "MCF7 breast", 21.7),
    ("C=CCn1c2ccccc2c2c3c(c4c5ccccc5n(CC=C)c4c21)C(=O)N(O)C3=O", "MCF7 breast", 13),
    ("C=C[C@@H]1C[C@@H]2Cc3c(C)cc(C)cc3N1O2", "MCF7 breast", 97.6),
    ("COC(=O)c1nc(-c2ccccc2)oc1S(=O)(=O)N1CCN(c2cccc(Cl)c2)CC1", "MCF7 breast", 39.2),
    ("Cc1ccc(Cc2c(C=O)nc(N)[nH]c2=O)c2ccccc12", "MCF7 breast", 103),
    ("COc1cccc(-c2nc3sccn3c2-c2ccnc(NCCCNS(=O)(=O)c3ccc(F)cc3)c2)c1", "MCF7 breast", 31.8),
]

Now for another entry.
Request the reported growth associated with "C=C(C)[C@@H]1C[C@@H]2Cc3cc(F)ccc3N1O2" 95.6

* * *

Would you kindly list growth for each of these molecules?
- System: SF-295 CNS
- run-description: NCI-60 one-dose screen, 48 h (100 = growth as untreated, 0 = no growth, -100 = all killed)
- measurement-conditions: 10 µM unless noted
The panel holds about 83,000 compounds, 20% with a hit somewhere; the sample as a whole holds those more often.
One number for each entry, in %.

Recorded growth, per entry:
# molecule, growth, %
measured = [
    ("COc1ccc(/C=N\\NC(=O)CN2CCN(c3cc4c(cc3F)c(=O)c(C(=O)N/N=C/c3ccc(OC)c(OC)c3)cn4C3CC3)CC2)cc1OC", 66.2),
    ("CCN(CC)CCOC(=O)C(c1ccccc1)(c1ccccc1)C(C)C", 91.1),
    ("CN(C)c1cccc2c(S(=O)(=O)/N=C(\\N)Nc3nc4ccccc4s3)cccc12", 33.6),
    ("O=C1NN(C(=O)c2ccc(Cl)cc2)C(c2ccccc2)=N/C1=C\\c1ccc(F)cc1", 72.9),
    ("CCOC(=O)c1ccc(NC(=O)N2CC(C)OC(C)C2)cc1 (centres undefined)", 98.5),
    ("Cc1nc2ncccc2nc1Nc1ccc(S(=O)(=O)Nc2cncs2)cc1", 107),
    ("COc1cc(NC(=O)SC2=NCCS2)cc(OC)c1", 113),
    ("O=[N+]([O-])c1cnc(Sc2ccncn2)s1", 102),
    ("CCCCNC(=O)Oc1ccc(/C(=C(\\C)c2ccccc2)c2ccc(OCCN(CC)CC)cc2)cc1", 91.1),
    ("Clc1cc(Cl)c2nc(-c3ccc(-c4ccc(/C=N/NC5=NCCN5)cc4)s3)cn2c1", 98.3),
]

Please report growth for every entry that follows.
1. Cc1ccc2[nH]c(=O)c3c(c2c1)Oc1ncn2nc(-c4ccco4)nc2c1C3c1ccc(Cl)cc1 (centres undefined)
2. CC(=O)Nc1ccc(S(=O)(=O)n2ccc(-c3ccc4c(c3)CCC(C)(C)O4)n2)cc1
3. OCc1ncc(-c2ccccc2)s1
4. Cc1ccc(S(=O)(=O)NCCNc2cc(-c3cn(C(C)(C)C)nc3-c3cccc(O)c3)ccn2)cc1

1. 95.9
2. 60.2
3. 106
4. 71.6

* * *

- System: CCRF-CEM leukemia
- run-description: NCI-60 one-dose screen, 48 h
- measurement-conditions: 10 µM unless noted
Compounds without any hit were thinned out: in the full panel of roughly 83,000, 20% have a hit. The source made the active and inactive calls. The calls were made as follows: active = growth percent below 10; inactive = the rest.
Outcomes you can answer with include only these: active, inactive

The following molecules have reported results that may help.
# molecule, assigned-class
records = [
    ("CCC(=O)Oc1ccc(/C(=C(/C)Cc2cccc(OC)c2)c2ccc(OCCN(C)C)cc2)cc1", "inactive"),
    ("COc1ccccc1CNCCCN1C(=O)c2ccc3c4c(ccc(c24)C1=O)C(=O)N(CCCNCCCCNCCCN)C3=O", "active"),
    ("CCO/C=N/C1=C(C#N)C(c2ccc(Cl)cc2)c2c(c3ccc(C)cc3[nH]c2=O)O1 (stereo unspecified)", "inactive"),
]

// return assay outcome for "N=C(N)c1ccc(-c2ccc(-c3ccc(-c4cccs4)s3)s2)cc1" active

What do you get for C/C=C(\C)C(C(=O)NC1CCCCC1)N(C(=O)C1CCc2cc(F)ccc2O1)c1ccc(Cl)cc1 (stereo unspecified) ? inactive

Then what about the molecule "Cc1ccc2nc(Cl)cc(=O)n2c1" ? inactive

* * *

- System: MDA-MB-231 breast
- run-description: NCI-60 one-dose screen, 48 h (100 = growth as untreated, 0 = no growth, -100 = all killed)
- measurement-conditions: 10 µM unless noted
Compounds without any hit were thinned out: in the full panel of roughly 83,000, 20% have a hit.
Simple rule here: growth less than 70% is class 1, otherwise class 0.

Below, 5 molecules whose answers are already recorded.
# molecule, system, assigned-class
data = [
    ("N=C(N)c1ccc(-c2cc(Cl)cc(Cl)c2)cn1", "MDA-MB-231 breast", "class 0"),
    ("COc1ccncc1S(=O)(=O)NC(=O)Nc1ccc(Cl)c(Cl)c1", "MDA-MB-231 breast", "class 0"),
    ("COc1cc(-c2nn(-c3cccc(NC(=O)Nc4ccc(Cl)c(C(F)(F)F)c4)c3)cc2-c2ccncc2)ccc1Cl", "MDA-MB-231 breast", "class 1"),
    ("CC(C)(C)c1[nH]nc2c1C(c1cc3ccccc3[nH]c1=O)Nc1cc(C(=O)Nc3ccc(Cl)cc3)ccc1N2 (stereo unspecified)", "MDA-MB-231 breast", "class 0"),
    ("c1ccc(Nc2nc(Nc3ccccc3)nc(Nc3ccccc3)n2)cc1", "MDA-MB-231 breast", "class 0"),
]

Problem: For the molecule COc1ccc(C2C=C(c3ccc(OC)c(OC)c3)N=C3SC=C(C)N32)c(Br)c1 (stereo unspecified) , is growth under 70%? class 0

// query: "Cn1c2ccc(Br)cc2c2c3c(c4c5ccccc5[nH]c4c21)C(=O)N(O)C3=O" class 1

Try this molecule next: "O=c1cc(Cc2ccc([N+](=O)[O-])cc2)[nH]c(=O)[nH]1" class 0

# repeat for "CC(C)NCCCNC1=C(Cl)C(=O)c2ccccc2C1=O" class 0

Next entry: "CC(=O)Nc1ccc(S(=O)(=O)n2ccc(-c3ccc4c(c3)CCC(C)(C)O4)n2)cc1" class 0

Now the molecule "C1=Cc2ccccc2N(c2nnc(-c3ccccc3)o2)c2ccccc21" class 0

Try this molecule next: "O=S(=O)(c1ccc(OCCO)cc1)c1ccc(OCCO)cc1" class 0

Please give the result for Cc1ccc(N2CCN(C(C)C(N)=O)CC2)cc1 (stereo unspecified) too. class 0
